- protocol summary: RAM signaling pathway blockade in yeast – S. cerevisiae, Pdr1DBD-CYC8 efflux-inhibited sensitized strain, primary screen (AID 1298);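 note: 0% = DMSO untreated cells without growth and 100% = 10 µM 1-NA-PP1 full growth; higher means more yeast growth rescued from 5-FOA killing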
- test context: S. cerevisiae cbk1-as DSE1-URA3 strain, 5-FOA growth OD615, 2 d; at 50 µM; stronger effect = higher value
Answer each item with its documented RAM network inhibition.
Answers are plain numbers, in %.

Parameter requested: RAM network inhibition. Apply to each item below.
1. CCOC(=O)C1=C(N)OC2=C(C(=O)CCC2)C1c1cccnc1 (stereo not given)
2. Cc1c(NC2=C(Cl)C(=O)N(c3ccccc3)C2=O)c(=O)n(-c2ccccc2)n1C
3. Nc1cccc(C(=O)Nc2ccc(N)cc2Cl)c1
4. CCc1ccc(NC(=O)CN(c2ccc3c(c2)OCO3)S(=O)(=O)c2c(C)noc2C)cc1
5. CCC(=O)c1cc(F)c(N2CCN(S(=O)(=O)c3ccccc3)CC2)cc1C
6. CCCn1cc(S(=O)(=O)CC(=O)Nc2ccc(OCC)cc2)c2ccccc21
7. COc1ccc(C(CNC(=O)C2CC(=O)N(Cc3ccc(C)cc3)C2)N(C)C)cc1 (stereo not given)

2.44
3.28
2.91
9.54
1.67
6.49
1.64

Parameter requested: RAM network inhibition. Apply to each item below.
1. c1cncc(CNc2c3c(nc4nnnn24)CCCC3)c1
2. NC(=O)c1ccsc1NC(=O)c1ccc(S(=O)(=O)N2CCCCC2)cc1
3. CCn1cc(C(=O)NCCCN2CCC(C)CC2)c2cc(OC)c(OC)cc2c1=O

1. -0.36
2. 2.41
3. 1.99

---

Answer each item with its documented viability.
- protocol summary: growth suppression of PTEN-deleted HCT116, pilot screen, cell-based, HCT116 clonal line, CellTiter-Glo (AID 824);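 note: 0% = 20 µM Hyamine control and 100% = vehicle cell control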
- test context: 60 h, at 10 µM, stronger effect = lower value
Inconclusive results are not listed.
Numbers only, in %.

See these solved cases before continuing.
INSERT INTO assay_data (compound, data_value) VALUES
  ('COc1cccc(NC(=O)CSc2ncnc3c2oc2ccccc23)c1', 87.3),
  ('O=C(O)CCC(=O)N1CCc2cc(S(=O)(=O)N3CC=C(c4ccccc4)CC3)ccc21', 93.9),
  ('CN1CCN(c2ncnc3c2sc2nc(N4CCCC4)c4c(c23)CC(C)(C)OC4)CC1', 97.1),
  ('Nn1c(SCC(=O)Nc2ccc(F)cc2)nnc1-c1ccccn1', 95.7),
  ('COc1ccc(Oc2coc3c(CN(C)C)c(O)ccc3c2=O)cc1', 95.3);

Parameter requested: viability. Apply to each item below.
1. NS(=O)(=O)c1ccc(CCNC(=O)C2CCCN(S(=O)(=O)c3cccnc3)C2)cc1 (configuration not stated)
2. COc1ccc(CCNc2ncnc3nc[nH]c23)cc1OC
3. CN(c1ccccc1)S(=O)(=O)c1ccc(C(=O)Nc2nccs2)cc1
4. CCOC(=O)c1[nH]c(C)c(C(=O)NCCN2CCOCC2)c1C
5. Cc1cccc(N(C)S(=O)(=O)c2cccc3nsnc23)c1
6. NC(=O)CN1CCN(C(=O)NC2CCCCC2)CC1
7. CC(=O)N1CCN(S(=O)(=O)c2ccc(C)cc2)C1c1ccc(N(C)C)cc1 (configuration not stated)

1. 97.7
2. 84.7
3. 83.3
4. 97.7
5. 89
6. 97.9
7. 97.1

---

- protocol summary: growth suppression of PTEN-deleted HCT116, pilot screen, cell-based, HCT116 clonal line, CellTiter-Glo (AID 824);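 note: 0% = 20 µM Hyamine control and 100% = vehicle cell control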
- test context: 60 h, at 10 µM, stronger effect = lower value
Inconclusive results are not listed.
value kind: viability (%)
Answers are plain numbers, in %.

See these solved cases before continuing.
INSERT INTO measurements (compound, unit_info, data_value) VALUES
  ('CC(=O)c1ccc(OCC(O)COc2ccc(C(C)=O)cc2)cc1', '%', 94.7),
  ('CSc1nc2c(c(=O)n1-c1ccc(F)cc1)SCC2', '%', 93.7),
  ('CCCOC(=O)c1ccc(OCC(O)CN2C(=O)NC(C)(C)C2=O)cc1 (stereo not drawn)', '%', 97.2),
  ('COc1cccc(C2CC(c3ccc(Cl)cc3)n3nc(N)nc3N2)c1 (stereo not drawn)', '%', 91.1),
  ('CCn1c(=NC(=O)c2ccc(N3C(=O)CCC3=O)cc2)sc2c(OC)ccc(OC)c21', '%', 92.7);

Parameter requested: viability. Apply to each item below.
1. COc1ccc(OC)c(Nc2cc(C)nc3nc(C)nn23)c1
2. CCc1ccc(Cn2nnc(C(=O)NCc3ccccc3OC)c2N)cc1
3. CCOC(=O)c1c(C)n(C)c2ccc(OCC(O)CN(CC)CC)cc12 (stereo not drawn)
4. Nc1nc2n(n1)C(c1ccco1)CC(c1ccc(F)cc1)N2 (stereo not drawn)
5. CC1CCN(CCCNC(=O)c2cc3c(=O)n(C)c4ccccc4c3n2C)CC1
6. CC(C)=C1C2C=CC1C(C(=O)Nc1cc(C)ccc1C)C2C(=O)O (stereo not drawn)
7. Cc1nc2ccc3nc(NC(=O)C4COc5ccccc5O4)sc3c2s1 (stereo not drawn)

1: 57.4; 2: 92; 3: 81.5; 4: 101; 5: 50; 6: 85.8; 7: 80.6

Parameter requested: viability. Apply to each item below.
1. O=C(C1Cc2ccccc2O1)N1CCCCC1 (stereo not drawn)
2. CC(=O)c1cc(Cc2csc(C(C)=O)c2)cs1
3. COc1ccccc1CNC(=O)CN1CCN(Cc2ccc(Cl)cc2)C1=O
4. Cc1cc(C)n(CC(O)Cn2c3ccccc3c3ccccc32)c(=O)n1 (stereo not drawn)
5. Cn1c(Cn2c(=O)sc3ccccc32)nnc1SCC(=O)NCC1CCCO1 (stereo not drawn)
6. CCN(CC)CCN1C(=O)C2C3c4ccccc4C(c4ccccc43)C2C1=O (stereo not drawn)

101
100
92.5
91.5
90
95.4

Parameter requested: viability. Apply to each item below.
1. c1cnc(N2CCSCC2)nc1
2. CCn1c(COc2cccc3cccnc23)nnc1SCC(=O)O
3. O=C(C1CC1)N1CCc2cc(Br)cc(S(=O)(=O)NCCN3CCOCC3)c21
4. COc1cc2c(cc1OC)C1=C(C#N)CC/C(=N\S(=O)(=O)c3ccccc3)N1CC2
5. COc1ccc(CN2CCNC(=O)C2CC(=O)O)cc1OC (stereo not drawn)

1. 101
2. 91.5
3. 94.7
4. 87.8
5. 101

---

- protocol summary: reducers of endogenous Her2 protein level, primary screen, SKBR3 breast tumor cells, AlphaScreen, ATP viability (AID 461);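 note: percent of carrier control wells set as 100% viability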
- test context: 18-24 h, measured here: SKBR3 viability, ATP luminescence, at 10 µM
value kind: viability (%)
One number for each entry, in %.

See these solved cases before continuing.
INSERT INTO results (compound, value_kind, unit_info, data_value) VALUES
  ('Cc1onc(-c2ccccc2)c1C(=O)Nc1ccc(S(=O)(=O)N2CCCCC2)cc1', 'viability', '%', 95.5),
  ('Cc1ccc(-c2noc(CCC(=O)N3CCN(c4cccc(C(F)(F)F)c4)CC3)n2)cc1', 'viability', '%', 87.5),
  ('Cc1ccc(CCC(=O)Nc2ccc(S(N)(=O)=O)cc2)o1', 'viability', '%', 87.5),
  ('C=CCn1c(-c2ccc(OC)cc2)nc2ccccc21', 'viability', '%', 118),
  ('Cc1cc(C)n(-c2nnc(C)n2/N=C/c2ccco2)n1', 'viability', '%', 108),
  ('Cn1c(=O)c2c(nc(CN3CCOCC3)n2CC(O)CO)n(C)c1=O (stereo not drawn)', 'viability', '%', 111);

Parameter requested: viability. Apply to each item below.
1. CCN(CC)S(=O)(=O)c1ccc2c(c1)c(=O)c(C(=O)NCCOC)cn2C
2. O=C(Nc1cccc2ccccc12)c1cnccn1

88.5
82

---

- protocol summary: RAM signaling pathway blockade in yeast – S. cerevisiae, Pdr1DBD-CYC8 efflux-inhibited sensitized strain, primary screen (AID 1298);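 note: 0% = DMSO untreated cells without growth and 100% = 10 µM 1-NA-PP1 full growth; higher means more yeast growth rescued from 5-FOA killing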
- test context: S. cerevisiae cbk1-as DSE1-URA3 strain, 5-FOA growth OD615, 2 d; at 50 µM
The source made the active and inactive calls.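 The calls were made as follows: active = RAM network inhibition above 8.4% in each of two replicates, 3 SD over the compound average; inconclusive = above 8.4% inhibition in only one replicate; inactive = 8.4% inhibition or less in each replicate.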
Classes to choose from: active, inactive

Solved cases below.
INSERT INTO results (molecule, qualitative_label) VALUES
  ('CC1(C)C(c2ccccc2)=[N+]([O-])CN1O', 'inactive'),
  ('CC(C)Sc1nc(NCc2ccco2)c2c3c(sc2n1)COC(C)(C)C3', 'inactive'),
  ('O=C(N=c1nc2ccccn2s1)c1ccccc1', 'inactive'),
  ('CCC(NC(=O)c1ccccc1NC(=O)c1ccco1)C(=O)NC1CCCCC1 (stereo unspecified)', 'inactive'),
  ('O=C(NCCN1C(=O)C2C3C=CC(C3)C2C1=O)Nc1ccccc1O (stereo unspecified)', 'inactive'),
  ('CCN1C=C(C(=O)OC)C(c2cccc(C)c2)C(C(=O)OC)=C1', 'inactive');

Would you mind telling me which call this test gave COc1ccccc1C1CC(=O)NC(SCC(=O)Nc2ccccc2)=C1C#N (stereo unspecified) ?
inactive

Would you mind telling me which call this test gave CCOC(=O)C1CCN(C(=O)c2ccc(NC(=O)C3CCCO3)cc2)CC1 (stereo unspecified) ?
inactive

Would you mind telling me which call this test gave "COc1cc(NC(=O)COc2ccc(-n3cnnn3)cc2)c(OC)cc1Cl" ?
inactive

Would you mind telling me which call this test gave "CCOC(=O)Cc1csc(SCn2nnc3ccccc3c2=O)n1" ?
inactive

Would you mind telling me which call this test gave CCCC(=O)C1=C(O)C(C(=O)OC)C(C)(C)CC1=N (stereo unspecified) ?
inactive
